# tested.target: human 17β-HSD2 (Homo sapiens, UniProt P37059)
# Construct: 17β-HSD2 was obtained from the microsomal fraction; from tissue; host or cells: human placenta, microsomal fraction
# Sequence (P37059 whole entry): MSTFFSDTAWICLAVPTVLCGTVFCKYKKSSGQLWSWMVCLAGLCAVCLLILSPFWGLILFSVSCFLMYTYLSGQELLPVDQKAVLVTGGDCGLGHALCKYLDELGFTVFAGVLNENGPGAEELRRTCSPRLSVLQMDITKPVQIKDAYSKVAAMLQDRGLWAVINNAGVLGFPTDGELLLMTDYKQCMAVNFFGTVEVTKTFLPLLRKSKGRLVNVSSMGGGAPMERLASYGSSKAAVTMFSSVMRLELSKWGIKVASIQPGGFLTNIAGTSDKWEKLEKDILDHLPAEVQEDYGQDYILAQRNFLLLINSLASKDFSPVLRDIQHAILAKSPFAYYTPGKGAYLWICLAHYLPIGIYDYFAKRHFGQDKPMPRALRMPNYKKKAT
# method.summary: Inhibition of human 17β-HSD2 (conversion of [3H]-E2 to E1)
# Format: biochemical
# reported.conditions: read-out: % inhibition h17β-HSD2 @ 10 nM
recorded.endpoint: inhibition at 0.01 µM (%)

[[record]]
molecule = "CS(=O)(=O)Nc1cccc(-c2ccc(C(=O)c3cc(F)c(F)c(O)c3F)s2)c1 [Compound 63]"
assay_value = 77

[[record]]
molecule = "O=C(c1ccc(-c2cccc(O)c2)s1)c1cc(F)c(F)c(O)c1F [Compound 69]"
assay_value = 95

[[record]]
molecule = "Cc1cc(-c2ccc(C(=O)c3cccc(O)c3Cl)s2)cc(C)c1O [Compound 79]"
assay_value = 64

[[record]]
molecule = "O=C(c1ccc(-c2ccccc2)s1)c1cc(F)c(F)c(O)c1F [Compound 56]"
assay_value = 93

[[record]]
molecule = "O=C(c1ccc(-c2ccc3[nH]cnc3c2)s1)c1cc(F)c(F)c(O)c1F [Compound 67]"
assay_value = 86


I: Nc1ccccc1-c1ccc(C(=O)c2cc(F)c(F)c(O)c2F)s1 [Compound 55]
II: O=C(c1ccc(-c2ccccc2O)s1)c1cc(F)c(F)c(O)c1F [Compound 70]
III: NS(=O)(=O)c1cccc(-c2ccc(C(=O)c3c(F)ccc(O)c3F)s2)c1 [Compound 76]
IV: COc1c(Cl)cc(-c2ccc(C(=O)c3c(Cl)ccc(O)c3F)s2)cc1Cl [Compound 77]
Input line: Arrange items by their inhibition at 0.01 µM values in increasing order. // format: requested-order list of labels
Output line: III, IV, I, II
(III: 26%, IV: 45%, I: 68%, II: 100%)

---

# tested.target: mouse 17β-HSD1 (Mus musculus)
# Construct: made in house; host or cells: HEK293 cells, transient transfection; 1,000 g supernatant of the cell lysate
# Sequence (P51656 whole entry): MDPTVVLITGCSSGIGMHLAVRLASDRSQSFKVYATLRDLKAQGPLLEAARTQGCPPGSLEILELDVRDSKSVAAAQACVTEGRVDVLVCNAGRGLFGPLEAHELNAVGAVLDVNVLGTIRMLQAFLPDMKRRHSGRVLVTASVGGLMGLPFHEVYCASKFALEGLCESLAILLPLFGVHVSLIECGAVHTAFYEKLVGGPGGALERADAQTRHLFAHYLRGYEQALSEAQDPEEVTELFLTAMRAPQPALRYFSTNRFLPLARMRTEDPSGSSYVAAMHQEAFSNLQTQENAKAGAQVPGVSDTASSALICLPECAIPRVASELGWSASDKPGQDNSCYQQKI
# method.summary: Inhibition of mouse 17β-HSD1 (recombinant, HEK293 lysate)
# Type: biochemical
# reported.conditions: read-out: % inhibition m17β-HSD1 @ 1 μM
Entries and their inhibition at 1 µM
Number only, in %; omit the unit.

Some compounds with known inhibition at 1 µM results, for comparison:
[[record]]
compound = "O=C(c1ccc(-c2cccc(NS(=O)(=O)c3ccc(Br)cc3OC(F)(F)F)c2)s1)c1cc(F)c(F)c(O)c1F [Compound 36]"
tested_target = "mouse 17β-HSD1 (Mus musculus)"
assay_value = 68

[[record]]
compound = "O=C(c1ccc(-c2cccc(NS(=O)(=O)c3ccccc3C(F)(F)F)c2)s1)c1cc(F)c(F)c(O)c1F [Compound 38]"
tested_target = "mouse 17β-HSD1 (Mus musculus)"
assay_value = 81


Now for another entry.
Input line: Reported inhibition at 1 µM, compound O=C(c1ccc(-c2ccc(O)c(Cl)c2)s1)c1c(F)ccc(O)c1F [Compound 20] : ____
Output line: 50

---

# tested.target: mouse 17β-HSD2 (Mus musculus, UniProt P51658)
# Construct: The pellet fractions containing the microsomal 17β-HSD2 were used for the determination of E1 formation; from tissue; host or cells: mouse liver, microsomal fraction
# Sequence (P51658 whole entry): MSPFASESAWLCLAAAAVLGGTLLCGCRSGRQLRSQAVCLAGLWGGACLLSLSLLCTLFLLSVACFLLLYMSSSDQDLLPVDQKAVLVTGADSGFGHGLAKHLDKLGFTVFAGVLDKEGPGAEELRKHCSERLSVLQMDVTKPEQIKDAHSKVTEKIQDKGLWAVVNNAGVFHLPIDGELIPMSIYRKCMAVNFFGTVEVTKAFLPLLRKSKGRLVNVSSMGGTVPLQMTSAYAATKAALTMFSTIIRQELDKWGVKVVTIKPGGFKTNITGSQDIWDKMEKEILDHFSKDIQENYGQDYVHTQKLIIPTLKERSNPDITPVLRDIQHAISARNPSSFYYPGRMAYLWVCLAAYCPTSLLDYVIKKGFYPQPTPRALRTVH
# method.summary: Inhibition of mouse 17β-HSD2 (liver microsomal fraction)
# Format: biochemical
# reported.conditions: read-out: Inhibition @ 1 μM m17β-HSD2
recorded.endpoint: inhibition at 1 µM (%)

[[record]]
compound = "O=C(c1ccc(-c2ccc(O)c(Cl)c2)s1)c1c(F)ccc(O)c1F [Compound 20]"
assay_value = 82

[[record]]
compound = "Nc1cccc(-c2ccc(C(=O)c3cc(F)c(F)c(O)c3F)s2)c1 [Compound 35]"
assay_value = 80

[[record]]
compound = "O=C(c1ccc(-c2cccc(Cl)c2O)s1)c1c(F)ccc(O)c1F [Compound 22]"
assay_value = 82

